// data source = patent US11547681B2

- Assay Protocol: Intestinal S9 fraction stability, dog
- Assay Conditions: male, Beagle, dog, s9, Half-life (min), calculated value in parentheses, control compound, dog intestinal S9 fraction; calculated value beyond duration of experiment
Readout Name: half-life
Show the value, then the unit it is measured in.

**Query** Output half-life of C[C@]12CC[C@H]3[C@@H](CCC4=CC(=O)CC[C@@]43C)[C@@H]1CC[C@@H]2O [Testosterone, testosterone, reference compound]
**Result** 1.6 h

###

- Assay Protocol: Pharmacokinetics of PEA after intravenous administration in male Sprague-Dawley rats
- Format: in vivo, Sprague-Dawley rat
- Assay Conditions: male, Sprague-Dawley, rat, in vivo, iv, 1 mg/kg, Plasma concentration of PEA, individual rats
Readout Name: concentration at 0.5 hr (ng/mL)
Just the number please, in ng/mL, no unit attached.

**Query** Annotate the molecule CCCCCCCCCCCCCCCC(=O)NCCO [PEA, palmitoylethanolamide] with its measured concentration at 0.5 hr.
**Result** 27.5

###

- Assay Protocol: Plasma stability (37° C., pH 7.4), human
- Assay type: in vitro ADME
- Assay Conditions: both sexes, human, plasma, pH 7.4, human plasma; calculated value beyond duration of experiment; read-out: Half-life (min), calculated half-life in parentheses
Readout Name: half-life at 1 μM (min)
Answer format: numeric, min implied, no suffix.

**Query** Look up and state reported half-life at 1 μM for CCCCC/C=C\C/C=C\CCCCCCCC(=O)OCCNC(=O)CCCCCCCCCCCCCCC
**Result** 147

**Query** Entry CCCCCCCCCCCCCCCC(=O)NCCOC(=O)CCC needs its half-life at 1 μM filled in; supply it.
**Result** 135

**Query** Name the recorded half-life at 1 μM of the item CC/C=C\C/C=C\C/C=C\C/C=C\C/C=C\CCCC(=O)OCCNC(=O)CCCCCCCCCCCCCCC in your answer.
**Result** 195

**Query** Provide one value: measured half-life at 1 μM of CCCCCCCCCCCCCCCC(=O)NCCOC(=O)CCC(=O)OCC(COC(=O)CCCCCCC)OC(=O)CCCCCCC (stereo not shown) [Compound I-3, PEA-Succinate-Glycerol-Di-Caprylic]
**Result** 211

###

- Assay Protocol: in vitro
- Assay Conditions: male, Beagle, dog, s9, 10 min, 1 μM
- Experimental: Reaction mixture, minus cofactors, was prepared as described below. Test article was added into the reaction mixture at a final concentration of 1 μM. […] Half-lives were calculated using GraphPad software, fitting to a single-phase exponential decay equation. Reaction mixture, minus cofactors, was prepared as described below. […] Half-lives were calculated using GraphPad software, fitting to a single-phase exponential decay equation. […]
Readout Name: % Remaining of Initial (n = 1), 10 min

**Query** Kindly indicate its recorded % Remaining of Initial (n = 1), 10 min. Item: CCCCCCCCCCCCCCCC(=O)NCCOC(=O)CCC(=O)OC[C@H]1O[C@@](CO)(O[C@H]2O[C@H](CO)[C@@H](O)[C@H](O)[C@H]2O)[C@@H](O)[C@@H]1O
**Result** <1.0%

**Query** Output measured % Remaining of Initial (n = 1), 10 min for this item: CC/C=C\C/C=C\C/C=C\C/C=C\C/C=C\CCCC(=O)OCCNC(=O)CCCCCCCCCCCCCCC
**Result** 72%

**Query** Output measured % Remaining of Initial (n = 1), 10 min for this item: CCCCCCCCCCCCCCCC(=O)NCCOC(=O)CCC(=O)OCC(O)CO (stereo not drawn)
**Result** <1.0%

###

- Assay Protocol: Liver microsomal stability, human
- Assay Conditions: both, human, microsomes, Half-life, Human liver microsomes
Readout Name: half-life at 1 μM (min)
Report only the number, with the unit min understood.

**Query** Look up half-life at 1 μM of C[C@]12CC[C@H]3[C@@H](CCC4=CC(=O)CC[C@@]43C)[C@@H]1CC[C@@H]2O [Testosterone, testosterone, reference compound] and report it.
**Result** 21

###

- Assay Protocol: Pharmacokinetics of PEA after intravenous administration in male Sprague-Dawley rats
- Format: in vivo, Sprague-Dawley rat
- Assay Conditions: male, Sprague-Dawley, rat, in vivo, iv, 1 mg/kg, MRTlast, Mean
Readout Name: MRT last (min)
API: value field is a number in min; no unit string.

**Query** Give me measured MRT last, please, for this molecule: CCCCCCCCCCCCCCCC(=O)NCCO [PEA, palmitoylethanolamide]
**Result** 24.1

###

- Assay Protocol: in vitro
- Assay Conditions: male, Sprague-Dawley, rat, s9, Half-life (min), calculated half-life in parentheses
What half-life at 1 μM was measured for each of the following?
Express your answer in h, writing the number without its unit.

**Query** Specify half-life at 1 μM for CC/C=C\C/C=C\C/C=C\C/C=C\C/C=C\CCCC(=O)OCCNC(=O)CCCCCCCCCCCCCCC and stop.
**Result** 1.52

**Query** Specify reported half-life at 1 μM for the molecule shown: CCCCCCCCCCCCCCCC(=O)NCCOC(=O)CCC(=O)OCC(COC(=O)CCCCCCC)OC(=O)CCCCCCC (centres unmarked) [Compound I-3, PEA-Succinate-Glycerol-Di-Caprylic]
**Result** 1.2

###

- Assay Protocol: in vitro
- Assay Conditions: male, Sprague-Dawley, rat, 60 min, 1 μM
Classify: Met when Concentration (μM) of analyte PEA, 60 min is strictly less than 0.02 µM; Not met when Concentration (μM) of analyte PEA, 60 min is not.

**Query** State whether 0.02 µM exceeds Concentration (μM) of analyte PEA, 60 min recorded for CCCCCCCCCCCCCCCC(=O)NCCOC(=O)CCC(=O)OCC(COC(=O)CCC)OC(=O)CCC (stereo not shown) .
**Result** Met

**Query** I'd appreciate it if you could check whether CCCCCCCCCCCCCCCC(=O)NCCOC(=O)CCC has Concentration (μM) of analyte PEA, 60 min smaller than 0.02 µM.
**Result** Not met

**Query** Please state whether Concentration (μM) of analyte PEA, 60 min is below 0.02 µM for CCCCC/C=C\C/C=C\CCCCCCCC(=O)OCCNC(=O)CCCCCCCCCCCCCCC
**Result** Met

**Query** Item CCCCCCCCCCCCCCCC(=O)NCCOC(=O)CCC(=O)OC[C@H]1O[C@@](CO)(O[C@H]2O[C@H](CO)[C@@H](O)[C@H](O)[C@H]2O)[C@@H](O)[C@@H]1O : Concentration (μM) of analyte PEA, 60 min beneath 0.02 µM, strictly?
**Result** Not met

**Query** Dear reviewer, please state whether CCCCCCCCCCCCCCCC(=O)NCCOC(=O)CCC(=O)OCC(O)CO (stereo not shown) has Concentration (μM) of analyte PEA, 60 min strictly beneath 0.02 µM.
**Result** Not met

**Query** Lab note: Concentration (μM) of analyte PEA, 60 min threshold 0.02 µM. Does this compound come in strictly under it? CC/C=C\C/C=C\C/C=C\C/C=C\C/C=C\CCCC(=O)OCCNC(=O)CCCCCCCCCCCCCCC
**Result** Met

**Query** Just wondering, is Concentration (μM) of analyte PEA, 60 min of CCCCCCCCCCCCCCCC(=O)NCCOC(=O)CCC(=O)OCC(COC(=O)CCCCCCC)OC(=O)CCCCCCC (stereo not shown) [Compound I-3, PEA-Succinate-Glycerol-Di-Caprylic] below 0.02 µM?
**Result** Met

###

- Assay Protocol: in vitro
- Assay Conditions: male, CD-1, mouse, 60 min, 1 μM
- Description: Reaction mixture, minus cofactors, was prepared as described below. Test article was added into the reaction mixture at a final concentration of 1 μM. […] Half-lives were calculated using GraphPad software, fitting to a single-phase exponential decay equation. Reaction mixture, minus cofactors, was prepared as described below. […] Half-lives were calculated using GraphPad software, fitting to a single-phase exponential decay equation. […]
Readout Name: Concentration (μM) of analyte PEA, 60 min (µM)
Express it in µM; write the number only.

**Query** Please give measured Concentration (μM) of analyte PEA, 60 min of the following entry: CCCCCCCCCCCCCCCC(=O)NCCOC(=O)CCC(=O)OCC(COC(=O)CCCCCCC)OC(=O)CCCCCCC (stereo not shown) [Compound I-3, PEA-Succinate-Glycerol-Di-Caprylic]
**Result** 0.025

**Query** For CCCCCCCCCCCCCCCC(=O)NCCOC(=O)CCC(=O)OCC(O)CO (stereo not shown) , write its Concentration (μM) of analyte PEA, 60 min.
**Result** 0.022

**Query** Report Concentration (μM) of analyte PEA, 60 min, nothing else, for this compound: CCCCCCCCCCCCCCCC(=O)NCCOC(=O)CCC
**Result** 0.022

**Query** Look up and report measured Concentration (μM) of analyte PEA, 60 min for this entry: CCCCC/C=C\C/C=C\CCCCCCCC(=O)OCCNC(=O)CCCCCCCCCCCCCCC
**Result** 0.015

**Query** Return reported Concentration (μM) of analyte PEA, 60 min. Input compound: CCCCCCCCCCCCCCCC(=O)NCCOC(=O)CCC(=O)OCC(COC(=O)CCC)OC(=O)CCC (stereo not shown)
**Result** 0.015

**Query** Tell us which Concentration (μM) of analyte PEA, 60 min value is on record for CC/C=C\C/C=C\C/C=C\C/C=C\C/C=C\CCCC(=O)OCCNC(=O)CCCCCCCCCCCCCCC
**Result** 0.018

**Query** Kindly indicate its recorded Concentration (μM) of analyte PEA, 60 min. Item: CCCCCCCCCCCCCCCC(=O)NCCOC(=O)CCC(=O)OC[C@H]1O[C@@](CO)(O[C@H]2O[C@H](CO)[C@@H](O)[C@H](O)[C@H]2O)[C@@H](O)[C@@H]1O
**Result** 0.020
